- assay_system: UniProtKB P50391
- Sequence (P50391 whole entry): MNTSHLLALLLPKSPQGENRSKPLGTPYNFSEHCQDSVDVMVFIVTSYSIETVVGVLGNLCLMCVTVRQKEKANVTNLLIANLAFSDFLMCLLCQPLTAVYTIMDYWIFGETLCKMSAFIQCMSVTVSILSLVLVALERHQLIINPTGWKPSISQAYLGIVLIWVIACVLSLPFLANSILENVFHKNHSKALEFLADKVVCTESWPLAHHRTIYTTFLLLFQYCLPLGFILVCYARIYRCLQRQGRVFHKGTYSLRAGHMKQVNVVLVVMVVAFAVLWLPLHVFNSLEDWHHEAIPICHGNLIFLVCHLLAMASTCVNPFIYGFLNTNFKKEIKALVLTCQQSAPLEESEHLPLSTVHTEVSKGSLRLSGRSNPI
- assay: Agonist activity at GFP-tagged neuropeptide Y4R (unknown origin) expressed in HEK293T cells assessed as beta-arrestin2 recruitment measured after 60 mins by H33342 staining-based imaging method
- Type: cell-based
- measurement_parameters: read-out: pEC50 (converted)
EC50 values for the compounds below.
Kindly provide the numeric value in nM only, without the unit symbol.

# molecule, quantitative_result
records = [
    ("CCN1\\C(=C/C=C/C=C/C2=[N+](CCCCCC(=O)N[C@H](CCCC[C@@H](N)C(=O)N[C@@H](Cc3ccc(O)cc3)C(=O)N[C@@H](CCCNC(=N)N)C(=O)N[C@@H](CC(C)C)C(=O)N[C@@H](CCCNC(=N)N)C(=O)N[C@@H](Cc3ccc(O)cc3)C(N)=O)C(=O)N[C@@H](Cc3ccc(O)cc3)C(=O)N[C@@H](CCCNC(=N)N)C(=O)N[C@@H](CC(C)C)C(=O)N[C@@H](CCCNC(=N)N)C(=O)N[C@@H](Cc3ccc(O)cc3)C(N)=O)c3ccc(S(=O)(=O)O)cc3C2(C)C)C(C)(C)c2cc(S(=O)(=O)[O-])ccc21", 33.1),
]

With those in mind, consider the next compound.
What value of EC50 on UniProtKB P50391 does `CCN(CC)c1ccc2c(-c3ccccc3C(=O)N3CCN(C(=O)CCC(=O)N[C@@H](C/C=C\C[C@H](N)C(=O)N[C@@H](Cc4ccc(O)cc4)C(=O)N[C@@H](CCCNC(=N)N)C(=O)N[C@@H](CC(C)C)C(=O)N[C@@H](CCCNC(=N)N)C(=O)N[C@@H](Cc4ccc(O)cc4)C(N)=O)C(=O)N[C@@H](Cc4ccc(O)cc4)C(=O)N[C@@H](CCCNC(=N)N)C(=O)N[C@@H](CC(C)C)C(=O)N[C@@H](CCCNC(=N)N)C(=O)N[C@@H](Cc4ccc(O)cc4)C(N)=O)CC3)c3ccc(=[N+](CC)CC)cc-3oc2c1` have? 5.5

Cited source: ChEMBL document CHEMBL4425111
